Kindly supply the reported Bond results values for the records listed here.
# TARGET_UNDER_TEST: T1, Class I HLA molecule A*2402 in recombinant form
# T1 MHC heavy: not shown
# MEASUREMENT_PROTOCOL: iTopia ELISA-like peptide-HLA binding
Provide only the numeric value, understood in %.

Give recorded Bond results. IVLTQSPGT [VK3-20 peptide No 2 IVLTQSPGT]
11

Give recorded Bond results. VLTQSPGTL [VK3-20 peptide No 3 VLTQSPGTL]
18

Give recorded Bond results. SPRTFGQGT [VK3-20 peptide No 95 SPRTFGQGT]
12

Give recorded Bond results. TQSPGTLSF [VK3-20 peptide No 5 TQSPGTLSF]
28

Give recorded Bond results. VSSSYLAWY [VK3-20 peptide No 29 VSSSYLAWY]
12

Give recorded Bond results. ASQIVSSSY [VK3-20 peptide No 25 ASQIVSSSY]
13

Give recorded Bond results. RLLIYGASS [VK3-20 peptide No 46 RLLIYGASS]
0

Give recorded Bond results. SYLAWYQQK [VK3-20 peptide No 32 SYLAWYQQK]
29
